Where these numbers come from: paper PMC10570711

- Measurement target: MBP-USF2 H240A (Homo sapiens, UniProt Q15853 235-346, H240A)
- Sequence (Q15853 235-346 H240A): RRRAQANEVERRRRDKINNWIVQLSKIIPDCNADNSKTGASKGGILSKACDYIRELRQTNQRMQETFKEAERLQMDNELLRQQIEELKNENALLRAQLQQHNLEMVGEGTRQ
- Test: fluorescence anisotropy; FA: 20 nM FAM-DNA, 20 mM Tris pH 8.0, 50 mM KCl, 2 mM MgCl2, 0.5% glycerol, 4 C, 3 h; EMSA: 100 nM Cy3-DNA, 10 mM Tris pH 8.0, 50 mM KCl, 1 mM DTT, 2 mM MgCl2
- Protocol conditions: protein: recombinant; tags: 6xHis-MBP N-terminal; chain copies: 2; label: 5'-FAM on strand 1; blunt as printed if S3 is read 3'-5' (printed with 5'-3' labels)
Endpoint label: pKd
Please keep in mind that pKd is minus log10 of the molar concentration; only the number is needed.

Entry FAM E-box DNA (dsDNA) DNA 1: GACGGGCACGTGACGCGC DNA 2: GCGCGTCACGTGCCCGTC ; pKd = 6.68
